- STUDY_TARGET: human glucagon receptor (human) (UniProt P47871)
- Sequence (P47871 26-477): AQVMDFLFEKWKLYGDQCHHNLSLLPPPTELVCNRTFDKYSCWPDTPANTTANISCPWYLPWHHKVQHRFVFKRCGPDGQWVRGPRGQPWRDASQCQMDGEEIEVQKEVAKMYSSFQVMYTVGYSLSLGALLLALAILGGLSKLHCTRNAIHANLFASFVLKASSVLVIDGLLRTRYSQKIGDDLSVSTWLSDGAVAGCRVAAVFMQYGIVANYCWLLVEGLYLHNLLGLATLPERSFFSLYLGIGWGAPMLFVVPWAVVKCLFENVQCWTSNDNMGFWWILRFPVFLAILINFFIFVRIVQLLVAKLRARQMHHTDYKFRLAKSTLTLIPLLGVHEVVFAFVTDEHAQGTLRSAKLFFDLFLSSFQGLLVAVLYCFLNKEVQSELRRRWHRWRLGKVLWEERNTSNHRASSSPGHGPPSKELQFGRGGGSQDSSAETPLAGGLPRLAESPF
- PROTOCOL_DESCRIPTION: cell-based or functional assay
Starred links: 1 amine or outer side, 2 acyl side, 3 side chain; linkers in the order of their positions; H or OH if unused. Non-standard residues stand in square brackets, D forms with d. Groups on a side chain read outwards from the residue. No end group written: not given here. *: point of attachment. C20 diacid = O=C(O)CCCCCCCCCCCCCCCCCCC(=O)*; γGlu = O=C(O)[C@H](CCC(=O)[*:2])N[*:1]; αMeL = CC(C)C[C@](C)(N)C(=O)O; AEEA = NCCOCCOCC(=O)O; Aib = CC(C)(N)C(=O)O
# Relative cAMP EC50 >= 2 nM gives satisfied, anything below gives not satisfied

{"columns": ["BINDER", "DISCRETE_LABEL"],
 "data": [
  ["YXQGTFTSDXSQXLDXKAQXAFIEXLIAXGPSSGAPPPSGSEE (not fully specified; Aib, 4Pal, αMeL, Orn, Me4Pal, αMeY; γGlu-C18 diacid Lys; C-term amide; synthetic construct; SITE 2: note = 2-Aminoisobutyric Acid; SITE 10: note = 3-(4-Pyridyl)-L-alanine; SITE 13: note = alpha-methyl-leucine; SITE 16: note = L-ornithine; SITE 17: note = Lysine is chemically modified through conjugation of the epsilon-amino group of the Lysine side chain with D-Glutami) [Example 1114]", "satisfied"],
  ["YXQGTFTSDFSXXLDKKAQXAFIEYLLEGGPSSGAPPPGES (synthetic construct; SITE 2: note = 2-Aminoisobutyric Acid; SITE 12: note = L-ornithine; SITE 13: note = alpha-methyl-leucine; SITE 17: note = Lysine is chemically modified through conjugation of the epsilon-amino group of the Lysine side chain with (2-[2-(2-Amino-ethoxy)-ethoxy]-acetyl)2-(gamma-Glu)) [Example 118]", "satisfied"],
  ["YXQGTXTSDXSILLDKKAQXAFIEYLEEGGPSSGAPPPSGAGE (Aib, αMeF(2F), 4Pal; acylated K; C-terminal amide; synthetic construct; SITE 2: note = 2-Aminoisobutyric Acid; SITE 6: note = alpha-methyl-2-fluoro-L-phenylalanine; SITE 10: note = 3-(4-Pyridyl)-L-alanine; SITE 17: note = Lysine is chemically modified through conjugation of the epsilon-amino group of the Lysine side chain with (gamma-Glu)2-CO-(CH2)1) [Example 620]", "satisfied"],
  ["YXQGTXTSDXXIXLDXKAQXXFIEYLLEGGPSSGEPPPSGTE (synthetic construct; SITE 2: note = 2-Aminoisobutyric Acid; SITE 6: note = alpha-methyl-2-fluoro-L-phenylalanine; SITE 10: note = 3-(4-Pyridyl)-L-alanine; SITE 11: note = alpha-methyl-L-serine; SITE 13: note = alpha-methyl-leucine; SITE 16: note = L-ornithine; SITE 17: note = Lysine is chemically mo) [Example 532]", "not satisfied"],
  ["Y[Aib]QGTFTSDFSK[αMeL]LDKK([AEEA-γGlu-C20 diacid])AQQAFIEYLLA[Aib]GPSSGEPPPSEG-NH2 [Example 19]", "satisfied"],
  ["YXQGTXTSDXXIXLDXKAQXEFIEXLIEGGPPSXEPPPXGE (non-natural residues (Aib, αMeF(2F), 4Pal, Orn, Me4Pal); lipidated Lys; C-amide; synthetic construct; SITE 2: note = 2-Aminoisobutyric Acid; SITE 6: note = alpha-methyl-2-fluoro-L-phenylalanine; SITE 10: note = 3-(4-Pyridyl)-L-alanine; SITE 11: note = alpha-methyl-L-serine; SITE 13: note = alpha-methyl-leucine; SITE 16: note = L-ornithine; SITE 17: note = Lysine is chemically mo) [Example 1193]", "not satisfied"]
]}
